Reference for the values: PubChem BioAssay (NCI)

Test system: HS 578T breast
Assay: NCI tumour cell line growth inhibition, 48 h
Reported log10 TGI by item:
endpoint: log10 TGI (log10 of the value in µM)

O=C(C1OC1c1cccc([N+](=O)[O-])c1)C12CC3CC(CC(C3)C1)C2 (stereo not given) | 1.16
C=C1C(=O)O[C@H]2[C@H]1CC/C(COC(=O)NCCc1cccc(OC)c1)=C\CC[C@@]1(C)O[C@@H]21 | 1.33
CCCCN1C(=O)/C(=c2\sc3n(c2=O)C2C(NN=3)N(CC)C(=O)N2CC)c2ccccc21 (stereo not given) | 0.78
COc1ccc2oc(C(=O)N3CC(CCl)c4ccc(N)cc43)cc2c1 (stereo not given) | 0.55
CC12OC(C(=O)C13CCC3)C1C(=O)c3ccc4c(ccc5ccccc54)c3C(=O)C12 (stereo not given) | 1.88

---

Reported TGI by item:
Test system: U251 CNS
Assay: NCI tumour cell line growth inhibition, 48 h
endpoint: TGI (µM)

COC[C@H]1C(=O)NCC(=O)N2N=CCC[C@H]2C(=O)N(O)[C@H](C)C(=O)O[C@@H](C(C)C)[C@H](NC(=O)[C@@](C)(O)[C@]2(O)CC[C@@H](CC(C)C)[C@H](C)O2)C(=O)N2NCCC[C@@H]2C(=O)N1O | 0.03
COc1ccc2nc3cccc([N+](=O)[O-])c3c(NCCNCCN(C)C)c2c1 | 0.404

---

Tested on: NCI/ADR-RES ovarian
Assay: NCI tumour cell line growth inhibition, 48 h
Reported TGI by item:
endpoint: TGI

Cn1cncc1-c1c(F)cncc1NC(=O)c1c(N)nn2cc(F)cnc12 | > 100 µM
COc1cccc2cc(C(=O)NC34CC5CC(CC(C5)C3)C4)c(=N)oc12 | > 100 µM
COc1cccc(NC(=O)c2sc3nc4c(cc3c2N)C(O)CCC4)c1 (stereo not drawn) | > 100 µM
O=C1/C(=C/c2ccccc2)CCCc2ccccc21 | 40.5 µM
C=CCn1c(-c2ccc(Cl)cc2)csc1=Nc1ccccc1OC | > 91.6 µM
C/C(=N\NC(N)=S)c1sc(-n2nc(-c3ccccc3)cc2-c2ccccc2)nc1C | > 100 µM
O=C(O)Cn1ccc2ccccc21 | > 100 µM
Cc1noc(C)c1-c1cnc2c(-c3ccc(C(=O)O)cc3)cn([C@@H](C)c3ccccn3)c2c1 | > 100 µM
CCN(CC)CCN1C(=O)C(=O)N(c2cccc3ccccc23)C1=O | > 10 µM
COc1ccc(CCN2C(=O)CC34C=CC(CC3C2=O)O4)cc1OC (stereo not drawn) | > 100 µM
CCOC(=O)C1(C(=O)OCC)C=C(c2ccccc2)N(C2OC(COC(C)=O)C(OC(C)=O)C(OC(C)=O)C2OC(C)=O)C1=S (stereo not drawn) | > 100 µM
Cc1cc(N(CCC#N)CCC#N)ccc1/C(N=Nc1ccc([N+](=O)[O-])cc1)=N\NC(=O)c1ccccc1 | > 100 µM
COc1cc(OC)c(C2(c3c(OC(C)C)c(=O)c3=O)SCCCS2)cc1OC | > 100 µM
C/C(O)=C(\C=NC(=S)c1ccncc1)C(=O)Nc1ccccc1C | > 100 µM
CN(C)c1ccc(/C=C(\NC(=O)c2ccccc2)C(=O)NC(Cc2c[nH]c3ccccc23)C(=O)O)cc1 (stereo not drawn) | > 100 µM
Cc1cc2nnc(C(N)=O)c(N)c2cc1C | > 100 µM
C[C@H](NC(=O)c1c(C(F)F)nn(C)c1Oc1cccc(C(F)(F)F)c1)c1ccc(C(=O)O)cc1 | > 100 µM
CCOC1CCN(C(=O)c2ccccc2)O1 (stereo not drawn) | > 10 µM
